Ref: patent US9216974B2

Consider the following molecules; for each one, report its Ki.
Molecular target: CAA (Homo sapiens, UniProt P05067)
Sequence (P05067 whole entry, looked up): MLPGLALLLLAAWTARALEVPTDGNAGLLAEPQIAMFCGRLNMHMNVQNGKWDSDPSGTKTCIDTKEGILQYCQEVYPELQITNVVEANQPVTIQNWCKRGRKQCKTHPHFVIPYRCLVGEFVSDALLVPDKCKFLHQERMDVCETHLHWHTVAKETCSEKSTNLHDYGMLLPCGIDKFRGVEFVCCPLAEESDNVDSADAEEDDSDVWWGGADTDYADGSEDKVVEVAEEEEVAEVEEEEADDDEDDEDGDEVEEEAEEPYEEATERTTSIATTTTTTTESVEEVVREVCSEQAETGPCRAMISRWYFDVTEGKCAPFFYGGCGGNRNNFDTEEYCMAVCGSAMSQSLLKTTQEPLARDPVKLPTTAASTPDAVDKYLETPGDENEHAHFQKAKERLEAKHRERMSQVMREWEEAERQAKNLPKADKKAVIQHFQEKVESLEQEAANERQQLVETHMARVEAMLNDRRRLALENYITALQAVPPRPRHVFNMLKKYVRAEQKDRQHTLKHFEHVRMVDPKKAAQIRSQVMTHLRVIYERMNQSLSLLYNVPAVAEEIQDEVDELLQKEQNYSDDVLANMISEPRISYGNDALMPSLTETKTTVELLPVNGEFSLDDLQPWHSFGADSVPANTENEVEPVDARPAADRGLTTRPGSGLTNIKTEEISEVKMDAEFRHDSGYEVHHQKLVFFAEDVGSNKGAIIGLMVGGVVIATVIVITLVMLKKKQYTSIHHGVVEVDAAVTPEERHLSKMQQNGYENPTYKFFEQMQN
Test: Binding affinities for CAA performed on isolated vessels determined by fluorescent binding
Settings: read-out: Binding affinity Ki
Answers are plain numbers, in µM.

- molecule: "COc1ccc2nc3ccc(=O)cc-3oc2c1 [Methoxy-resorufin]"
  unit_abbrev: "µM"
  Ki: 4.67

# molecule C#COc1ccc2nc3ccc(=O)cc-3oc2c1 [WC-5-1] ; its Ki = 4.61

* * *

Biological target: CAA (Homo sapiens)
Test: Binding affinities for CAA performed on isolated vessels determined by fluorescent binding
Conditions: read-out: Binding affinity Ki
value_kind: pKi
Answers are plain numbers, as −log10 of the molar value.

- given_smiles: "COc1ccc(OCCOc2ccc3nc4ccc(=O)cc-4oc3c2)cc1"
  pKi: 6.38
- given_smiles: "COc1ccc(COc2ccc3nc4ccc(=O)cc-4oc3c2)cc1"
  pKi: 6.66
- given_smiles: "COCCOc1ccc2nc3ccc(=O)cc-3oc2c1"
  pKi: 6.46
- given_smiles: "CC(=O)OCCOc1ccc2nc3ccc(=O)cc-3oc2c1"
  pKi: 6.07

Moving on to the next compound.
# compound `COCCOCCOc1ccc2nc3ccc(=O)cc-3oc2c1` ; its pKi = 6.39

* * *

Biological target: CAA (Homo sapiens)
Assay: Binding affinities for CAA performed on isolated vessels determined by fluorescent binding
Settings: read-out: Binding affinity KD
pKd: −log10 of the molar value.
Decide using pKd: a value greater than or equal to 6 is 1, a smaller one is 0.

- given_smiles: "O=c1ccc2nc3ccc(OCc4ccc(I)cc4)cc3oc-2c1"
  qualitative_label: 0
- given_smiles: "COc1cccc(COc2ccc3nc4ccc(=O)cc-4oc3c2)c1"
  qualitative_label: 1

Attention now turns to another entry.
Record `O=c1ccc2nc3ccc(OCc4cn(CCF)nn4)cc3oc-2c1` ; criterion: pKd no lower than 6. Met?
0

* * *

Target: UniProt P05067
Test: Binding affinities for CAA performed on isolated vessels determined by fluorescent binding
Settings: read-out: Binding affinity KD
value_kind: Kd (nM)
Answers are plain numbers, in nM.

- given_smiles: "C#COc1ccc2nc3ccc(=O)cc-3oc2c1"
  Kd [nM]: 828
- given_smiles: "O=c1ccc2nc3ccc(OCCF)cc3oc-2c1"
  Kd [nM]: 800

Moving on to the next compound.
The reported UniProt P05067 Kd of `O=c1ccc2nc3ccc(OCCBr)cc3oc-2c1` is 927
